Tested on: Canis familiaris
method-summary: Saluretic activity in dog assessed as urinary excretion of sodium level at 1 mg/kg, iv after 3 hrs
Format: functional, Canis lupus familiaris, Urine
endpoint-label: Activity

Worked examples, 6 molecules total:
C[S+]([O-])c1cc(C(=O)O)cc(NCc2ccccc2)c1Oc1ccccc1 (configuration not stated): 0.9 milliequivalent/kg
CCCCNc1cc(C(=O)O)cc(S(C)(=O)=O)c1Oc1ccccc1: 2.1 milliequivalent/kg
CS(=O)(=O)c1cc(C(=O)O)cc(NCc2ccccc2)c1Oc1ccccc1: 4.8 milliequivalent/kg
CSc1cc(C(=O)O)cc(NCc2ccccc2)c1Oc1ccccc1: 0.6 milliequivalent/kg
CCCCSc1cc(C(=O)O)cc(S(C)(=O)=O)c1Oc1ccccc1: 3 milliequivalent/kg
CS(=O)(=O)c1cc(C(=O)O)cc(NCc2ccccc2)c1Sc1ccccc1: 2 milliequivalent/kg

(Q) I am curious: what Activity value has been reported for CS(=O)(=O)c1cc(C(=O)O)c(NCc2ccco2)cc1Oc1ccccc1 ?
(A) 1.7 milliequivalent/kg
